Provide the recorded pIC50 for the entries that follow.
- Test system: MDA-MB-231
- Test: Antiproliferative activity against human MDA-MB-231 cells assessed inhibition of cell growth incubated for 72 hrs by alamar blue assay
- Format: functional, cell-based
- Condition label: MDA-MB-231, 72 h
Give bare numbers, as −log10 of the molar value.

Worked examples follow.
CNC(=O)N[C@H](C)[C@@H](O)[C@@H](C)[C@@H]1OC(=O)/C=C/C=C(C)\C=C\[C@]2(C)CCC=C[C@@H]2/C=C(C)/C=C/[C@H]1C
6.98
CC1=C/C=C/C(=O)O[C@@H]([C@H](C)[C@H](O)[C@@H](C)NC(=O)C(C)C)[C@H](C)/C=C/C(C)=C/[C@H]2C=CCC[C@@]2(C)\C=C\1
7.19

Note: attention shifts to another entry.
Exam item: Provide measured pIC50 value, entry: "CC1=C/C=C/C(=O)O[C@@H]([C@H](C)[C@H](O)[C@@H](C)NS(C)(=O)=O)[C@H](C)/C=C/C(C)=C/[C@H]2C=CCC[C@@]2(C)\C=C\1"
Marked response: 5.99

###

Provide the recorded pIC50 for the entries that follow.
- Test system: HCT-116
- Test: Antiproliferative activity against human HCT-116 cells assessed inhibition of cell growth incubated for 72 hrs by alamar blue assay
- Format: functional, cell-based
- Condition label: HCT-116, 72 h
Give bare numbers, as −log10 of the molar value.

CC1=C/C=C/C(=O)O[C@@H]([C@H](C)[C@H](O)[C@@H](C)NC(=O)C(C)C)[C@H](C)/C=C/C(C)=C/[C@H]2C=CCC[C@@]2(C)\C=C\1
7.32
CNC(=O)N[C@H](C)[C@@H](O)[C@@H](C)[C@@H]1OC(=O)/C=C/C=C(C)\C=C\[C@]2(C)CCC=C[C@@H]2/C=C(C)/C=C/[C@H]1C
6.87
CC1=C/C=C/C(=O)O[C@@H]([C@H](C)[C@H](O)[C@@H](C)NS(C)(=O)=O)[C@H](C)/C=C/C(C)=C/[C@H]2C=CCC[C@@]2(C)\C=C\1
5.47

Note: attention shifts to another entry.
Exam item: Give pIC50; test system HCT-116; compound "CC(=O)N[C@H](C)[C@@H](O)[C@@H](C)[C@@H]1OC(=O)/C=C/C=C(C)\C=C\[C@]2(C)CCC=C[C@@H]2/C=C(C)/C=C/[C@H]1C"
Marked response: 7.05

###

- Test system: MCF7
- Test: Antiproliferative activity against human MCF7 cells assessed inhibition of cell growth incubated for 72 hrs by alamar blue assay
- Type: functional, cell-based
- Condition label: MCF7, 72 h
Quantity measured: IC50 (nM)
Numbers only, in nM.

Could I get IC50 for every one of these entries?
1. CC1=C/C=C/C(=O)O[C@@H]([C@H](C)[C@H](O)[C@@H](C)NS(C)(=O)=O)[C@H](C)/C=C/C(C)=C/[C@H]2C=CCC[C@@]2(C)\C=C\1
2. CNC(=O)N[C@H](C)[C@@H](O)[C@@H](C)[C@@H]1OC(=O)/C=C/C=C(C)\C=C\[C@]2(C)CCC=C[C@@H]2/C=C(C)/C=C/[C@H]1C
3. CC1=C/C=C/C(=O)O[C@@H]([C@H](C)[C@H](O)[C@@H](C)NC(=O)C(C)C)[C@H](C)/C=C/C(C)=C/[C@H]2C=CCC[C@@]2(C)\C=C\1

Marked response:
[1120, 88.5, 41.4]
